For each of the molecules below, state its pIC50.
target of assay: LecA (Pseudomonas aeruginosa, UniProt Q05097)
Construct: made in house
Sequence (Q05097 whole entry): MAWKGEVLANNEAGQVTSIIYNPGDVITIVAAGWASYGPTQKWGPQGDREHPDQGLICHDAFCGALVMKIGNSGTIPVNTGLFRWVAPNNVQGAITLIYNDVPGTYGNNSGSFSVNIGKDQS
test: competitive binding assay based on fluorescence polarisation (FP)
assay conditions: IC50, Table 3; TBS/Ca2+ buffer in presence of 25% DMSO
In textbook form, pIC50 equals minus log to base ten of the concentration in mol/L.

query: Give its pIC50 value. Item: `O=C(CCc1ccc(O[C@@H]2O[C@H](CO)[C@H](O)[C@H](O)[C@H]2O)cc1)Nc1ccc(OCCCCOc2ccc(NC(=O)CCc3ccc(O[C@@H]4O[C@H](CO)[C@H](O)[C@H](O)[C@H]4O)cc3)cn2)nc1`
result: 5.49

query: Recorded pIC50 for O=[N+]([O-])c1ccc(O[C@@H]2O[C@H](CO)[C@H](O)[C@H](O)[C@H]2O)cc1 [pNO2-Ph-β-Gal, reference compound] , please?
result: 4.39

query: What value of pIC50 has been reported for the following molecule? `O=C(CCc1ccc(O[C@@H]2O[C@H](CO)[C@H](O)[C@H](O)[C@H]2O)cc1)Nc1ccc(OCCCOc2ccc(NC(=O)CCc3ccc(O[C@@H]4O[C@H](CO)[C@H](O)[C@H](O)[C@H]4O)cc3)cn2)nc1`
result: 5.57

query: Need pIC50 of `O=C(/C=C/c1ccc(O[C@@H]2O[C@H](CO)[C@H](O)[C@H](O)[C@H]2O)cc1)Nc1ccc(OCCOc2ccc(NC(=O)/C=C/c3ccc(O[C@@H]4O[C@H](CO)[C@H](O)[C@H](O)[C@H]4O)cc3)cn2)nc1` , thanks.
result: 5.12

query: Quick check: pIC50 of `O=C(/C=C/c1ccc(O[C@@H]2O[C@H](CO)[C@H](O)[C@H](O)[C@H]2O)cc1)Nc1ccc(OCCCOc2ccc(NC(=O)/C=C/c3ccc(O[C@@H]4O[C@H](CO)[C@H](O)[C@H](O)[C@H]4O)cc3)cn2)nc1` ?
result: 5.37

###

target of assay: LecA (Pseudomonas aeruginosa, UniProt Q05097)
Construct: made in house
test: surface plasmon resonance (SPR) direct binding to immobilised LecA
experimental endpoint: Kd (nM)
Write the number in nM without appending the unit.

query: For the compound shown here, O=C(NN=Cc1ccc(OCCCCOc2ccc(C=NNC(=O)c3ccc(OC4OC(CO)C(O)C(O)C4O)cc3)cc2)cc1)c1ccc(OC2OC(CO)C(O)C(O)C2O)cc1 (stereo not shown) , give the reported Kd.
result: 94

query: Returns the measured Kd for the input compound. Input: O=C(NN=Cc1ccc(OCOc2ccc(C=NNC(=O)c3ccc(OC4OC(CO)C(O)C(O)C4O)cc3)cc2)cc1)c1ccc(OC2OC(CO)C(O)C(O)C2O)cc1 (stereo not shown)
result: 30.5

query: GET /values?readout=Kd&item= O=C(NN=Cc1ccc(OCCCCOc2ccc(C=NNC(=O)c3cccc(OC4OC(CO)C(O)C(O)C4O)c3)cc2)cc1)c1cccc(OC2OC(CO)C(O)C(O)C2O)c1 (stereo not shown)
result: 25.7

query: Can you look up the measured Kd of O=C(NN=Cc1ccc(OCOc2ccc(C=NNC(=O)c3cccc(OC4OC(CO)C(O)C(O)C4O)c3)cc2)cc1)c1cccc(OC2OC(CO)C(O)C(O)C2O)c1 (stereo not shown) for me?
result: 14.3

query: If you can, please state the reported Kd value of O=C(NN=Cc1ccc(OCCCOc2ccc(C=NNC(=O)c3cccc(OC4OC(CO)C(O)C(O)C4O)c3)cc2)cc1)c1cccc(OC2OC(CO)C(O)C(O)C2O)c1 (stereo not shown) .
result: 65.9

query: Field request: Kd | item: O=C(NN=Cc1ccc(Oc2ccc(C=NNC(=O)c3cccc(OC4OC(CO)C(O)C(O)C4O)c3)cc2)cc1)c1cccc(OC2OC(CO)C(O)C(O)C2O)c1 (stereo not shown)
result: 16.6

query: Recorded Kd for O=C(NN=Cc1ccc(OCCOc2ccc(C=NNC(=O)c3cccc(OC4OC(CO)C(O)C(O)C4O)c3)cc2)cc1)c1cccc(OC2OC(CO)C(O)C(O)C2O)c1 (stereo not shown) , please?
result: 14.9

Where do the numbers come from? From patent US12545699B2.
